Values compiled from the supplement of paper PMC6555819.

- Test system: PPARg DBDmut IVT, anti-PPARg (DBD mutation: PPARg1 K132A/R137A, NR concentration 270 nM)
- assay.overview: PBM binding z-score (relative to random genomic background probes); higher = stronger binding; sequences stand for … in GC…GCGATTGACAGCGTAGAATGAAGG
observed.property: PBM binding z-score
Lab note: jot down the number only; don't add units.

Below: 3 sequences and their reported PBM binding z-score.
>>> df
               macromolecule_sequence  measured_result
0  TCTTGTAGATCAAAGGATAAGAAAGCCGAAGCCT           -0.158
1  GGAACGAGGGCAAAGATGATAGCATCTGTCGACG           0.0962
2  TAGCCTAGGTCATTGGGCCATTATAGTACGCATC            0.314

Specify measured PBM binding z-score for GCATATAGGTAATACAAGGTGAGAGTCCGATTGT .
0.73

Specify reported PBM binding z-score for the sequence shown: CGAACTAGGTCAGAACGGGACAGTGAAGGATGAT
2.6

# return recorded PBM binding z-score for entry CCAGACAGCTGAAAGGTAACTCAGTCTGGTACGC
-0.671

Read the entry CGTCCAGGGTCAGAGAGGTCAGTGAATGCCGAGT and write its reported PBM binding z-score.
-0.926
